System: A498
assay: NCI-60 one-dose screen
Assay type: cell-based
protocol conditions: Homo sapiens; A498, Renal Cancer panel; single dose 10^−5 M; read-out: Growth inhibition %
inhibition at 10 µM for assorted compounds
Field note: include the unit after the figure.

For orientation, consider the following solved cases.
Clc1ccc(CNc2c3ccccc3nc3ccccc23)cc1: 79.2%
COc1ccc(CNc2c3ccccc3nc3ccc(OC)cc23)cc1: 106%
c1csc(-c2ccc(CNc3c4ccccc4nc4ccccc34)cc2)c1: 102%

Read the next record carefully.
Request: Request the reported inhibition at 10 µM associated with COc1ccc(CNc2c3ccccc3nc3ccccc23)cc1
Response: 90%

----------
System: MDA-MB-468
assay: NCI-60 one-dose screen
Assay type: cell-based
protocol conditions: Homo sapiens; MDA-MB-468, Breast Cancer panel; single dose 10^−5 M; read-out: Growth inhibition %
Measured inhibition at 10 µM by item
Write down the numeric answer in % and omit the unit.

COc1ccc2nc3ccccc3c(NCc3ccc(C)cc3)c2c1: 119
COc1cccc(CNc2c3ccccc3nc3ccccc23)c1OC: 98.9
COc1ccc(CNc2c3ccccc3nc3ccccc23)c(OC)c1: 95.2
Clc1ccccc1CNc1c2ccccc2nc2ccccc12: 128
Clc1ccc(CNc2c3ccccc3nc3ccccc23)cc1: 70.4
Fc1ccc(CNc2c3ccccc3nc3ccccc23)cc1F: 111

Could you now look at the following compound, please?
Request: Entry Cc1ccc(CNc2c3ccccc3nc3ccccc23)cc1 : reported inhibition at 10 µM = ?
Response: 92.8

----------
Test system: COLO 205
assay: NCI-60 one-dose screen
Format: cell-based
protocol conditions: Homo sapiens; COLO 205, Colon Cancer panel; single dose 10^−5 M; read-out: Growth inhibition %
The reader will find reported inhibition at 10 µM values listed item by item below.
Unit % implied. Number only.

Record excerpt, results attached:
Clc1ccccc1CNc1c2ccccc2nc2ccccc12: 99.5
COc1ccc2nc3ccccc3c(NCc3ccc(Cl)cc3)c2c1: 162
COc1ccc2nc3ccccc3c(NCc3ccc(F)cc3)c2c1: 154
Cc1ccc(CNc2c3ccccc3nc3ccccc23)cc1: 99.7
Fc1ccc(CNc2c3ccccc3nc3ccccc23)cc1: 92.5
c1csc(-c2ccc(CNc3c4ccccc4nc4ccccc34)cc2)c1: 94.9

Request: Which measured inhibition at 10 µM value corresponds to COc1ccc(CNc2c3ccccc3nc3ccccc23)c(OC)c1 ?
Response: 75.4

Request: Also check Cc1ccc2nc3ccccc3c(NCc3ccccc3)c2c1
Response: 91.9

----------
Below is a list of entries, each paired with its recorded inhibition at 10 µM value.
Test system: NCI-H460
assay: NCI-60 one-dose screen
Type: cell-based
protocol conditions: Homo sapiens; NCI-H460, Non-small cell lung panel; single dose 10^−5 M; read-out: Growth inhibition %
Hey, just the number and the unit after it is fine.

Fc1cccc(CNc2c3ccccc3nc3ccccc23)c1 [Compound 9, Acridin-9-yl-(3-fluorobenzyl)-amine]: 87.3%
COc1cccc(CNc2c3ccccc3nc3ccccc23)c1OC [Compound 16, Acridin-9-yl-(2,3-dimethoxybenzyl)-amine]: 88.4%

Could you now look at the following molecule, please?
Request: Bench note: what inhibition at 10 µM did COc1cccc(CNc2c3ccccc3nc3ccccc23)c1 [Compound 6, Acridin-9-yl-(3-methoxybenzyl)-amine] show?
Response: 90%

----------
Test system: KM12
assay: NCI-60 one-dose screen
Assay type: cell-based
protocol conditions: Homo sapiens; KM12, Colon Cancer panel; single dose 10^−5 M; read-out: Growth inhibition %
# inhibition at 10 µM per entry
Provide only the numeric value, understood in %.

Worked examples follow.
COc1ccccc1CNc1c2ccccc2nc2ccccc12: 67.1
Cc1ccccc1CNc1c2ccccc2nc2ccccc12: 83.1
Fc1ccc(CNc2c3ccccc3nc3ccccc23)cc1: 71.7
c1ccc(CNc2c3ccccc3nc3ccccc23)cc1: 69.5
COc1cccc(CNc2c3ccccc3nc3ccccc23)c1: 64.1

Request: Look up inhibition at 10 µM: COc1ccc(CNc2c3ccccc3nc3ccccc23)cc1OC
Response: 68.4

Request: Then what about the compound c1csc(-c2ccc(CNc3c4ccccc4nc4ccccc34)cc2)c1 ?
Response: 73.7

Request: Try the compound COc1ccc2nc3ccccc3c(NCc3ccc(Cl)cc3)c2c1
Response: 59.9

----------
Tested on: UO-31
assay: NCI-60 one-dose screen
Assay type: cell-based
protocol conditions: Homo sapiens; UO-31, Renal Cancer panel; single dose 10^−5 M; read-out: Growth inhibition %
quantity measured: inhibition at 10 µM (%)
Express the result in % but write the number alone.

For orientation, consider the following solved cases.
Fc1ccc(CNc2c3ccccc3nc3ccccc23)cc1: 86.5
Cc1cccc(CNc2c3ccccc3nc3ccccc23)c1: 85.3
c1ccc(CNc2c3ccccc3nc3ccccc23)cc1: 76.2

Request: GET /values?readout=inhibition at 10 µM&item= COc1ccc2nc3ccccc3c(NCc3ccc(C)cc3)c2c1
Response: 86.7

Request: And for COc1ccc2nc3ccccc3c(NCc3ccccc3)c2c1 ?
Response: 86.2

Request: Next compound: Cc1ccc2nc3ccccc3c(NCc3ccccc3)c2c1
Response: 81.7

Request: Then this compound: Clc1cccc(CNc2c3ccccc3nc3ccccc23)c1
Response: 84

----------
System: PC-3
assay: NCI-60 one-dose screen
Assay type: cell-based
protocol conditions: Homo sapiens; PC-3, Prostate Cancer panel; single dose 10^−5 M; read-out: Growth inhibition %
Each record here notes measured inhibition at 10 µM.

// solved cases for inhibition at 10 µM follow
COc1cccc(CNc2c3ccccc3nc3ccccc23)c1OC: 62.4%
COc1ccc(CNc2c3ccccc3nc3ccccc23)cc1F: 69.5%
Clc1ccc(CNc2c3ccccc3nc3ccccc23)cc1: 61.3%
Fc1cccc(CNc2c3ccccc3nc3ccccc23)c1: 51%
Fc1ccc(CNc2c3ccccc3nc3ccccc23)c(F)c1: 31.1%
COc1cccc(CNc2c3ccccc3nc3ccccc23)c1: 61.1%
Fc1ccccc1CNc1c2ccccc2nc2ccccc12: 52.9%
Fc1ccc(CNc2c3ccccc3nc3ccccc23)cc1: 73.1%
Fc1ccc(CNc2c3ccccc3nc3ccccc23)cc1F: 64.3%
COc1ccc(CNc2c3ccccc3nc3ccccc23)cc1OC: 78%

Request: inhibition at 10 µM lookup needed for c1ccc(CNc2c3ccccc3nc3ccccc23)cc1 , thanks.
Response: 62.8%

Request: // next record COc1ccc(CNc2c3ccccc3nc3ccccc23)c(OC)c1
Response: 52.9%

Request: Now consider COc1ccc(CNc2c3ccccc3nc3ccc(OC)cc23)cc1 and answer again.
Response: 94.5%

Request: Consider next the molecule Cc1ccc2nc3ccccc3c(NCc3ccc(Cl)cc3)c2c1 in the same way.
Response: 60.9%

Request: Now the same for c1coc(CNc2c3ccccc3nc3ccccc23)c1
Response: 33%

Request: Please give the result for c1ccc(CCNc2c3ccccc3nc3ccccc23)cc1 too.
Response: 64.3%

Request: // repeat for COc1ccc(CNc2c3ccccc3nc3ccccc23)cc1 and report
Response: 66%

Request: Follow-up entry: Cc1cccc(CNc2c3ccccc3nc3ccccc23)c1
Response: 75.1%

----------
Test system: NCI-H460
assay: NCI-60 one-dose screen
Format: cell-based
protocol conditions: Homo sapiens; NCI-H460, Non-small cell lung panel; single dose 10^−5 M; read-out: Growth inhibition %
quantity measured: inhibition at 10 µM (%)
# unit: % | format: bare number

Solved entries:
Clc1ccc(CNc2c3ccccc3nc3ccccc23)cc1: 83.6
c1ccc(CCNc2c3ccccc3nc3ccccc23)cc1: 84.7
Fc1ccccc1CNc1c2ccccc2nc2ccccc12: 86.5
Fc1ccc(CNc2c3ccccc3nc3ccccc23)cc1: 91.2
COc1ccc2nc3ccccc3c(NCc3ccc(C)cc3)c2c1: 90

Request: # get_value(readout= inhibition at 10 µM, system= NCI-H460) for COc1ccccc1CNc1c2ccccc2nc2ccccc12
Response: 89.8

Request: What do you have for COc1ccc(CNc2c3ccccc3nc3ccccc23)c(OC)c1 ?
Response: 83.3

----------
System: COLO 205
assay: NCI-60 one-dose screen
Format: cell-based
protocol conditions: Homo sapiens; COLO 205, Colon Cancer panel; single dose 10^−5 M; read-out: Growth inhibition %
quantity measured: inhibition at 10 µM (%)
I only need the number, in %, no unit after it.

Fc1cccc(CNc2c3ccccc3nc3ccccc23)c1F [Compound 20, Acridin-9-yl-(2,3-difluorobenzyl)-amine]: 59.1

Request: Would you mind telling me what inhibition at 10 µM value was observed for Clc1ccc(CNc2c3ccccc3nc3ccccc23)cc1 [Compound 13, Acridin-9-yl-(4-chlorobenzyl)-amine] ?
Response: 91.4

Request: // repeat for c1ccc(CNc2c3ccccc3nc3ccccc23)cc1 [Compound 1, Acridin-9-yl-benzyl-amine] and report
Response: 92.7

----------
The reader will find reported inhibition at 10 µM values listed item by item below.
System: UO-31
assay: NCI-60 one-dose screen
Assay type: cell-based
protocol conditions: Homo sapiens; UO-31, Renal Cancer panel; single dose 10^−5 M; read-out: Growth inhibition %
Experimental: The newly synthesized compounds were screened for their in vitro anticancer activity at the Developmental Therapeutic Program (DTP) of the National Cancer Institute (NCI). The screening involved a panel of 60 human tumor cell lines consisting of 9 tissue types to screen for potential anti-cancer agents. The primary screening of submitted compounds was performed by testing a single dose (10^−5 M) in the full NCI-60 panel. […]
// return numeric value only (unit: %, not printed)

Request: Query: inhibition at 10 µM; subject: c1ccc(CCNc2c3ccccc3nc3ccccc23)cc1
Response: 75.8

Request: Record: Cc1ccccc1CNc1c2ccccc2nc2ccccc12
Response: 84.5

Request: Next up: Cc1ccc(CNc2c3ccccc3nc3ccccc23)cc1
Response: 88

Request: # repeat for COc1ccc(CNc2c3ccccc3nc3ccccc23)c(OC)c1
Response: 72

Request: Same question for Fc1ccc(CNc2c3ccccc3nc3ccccc23)c(F)c1 please.
Response: 69.7

Request: What do you get for COc1ccc(CNc2c3ccccc3nc3ccccc23)cc1 ?
Response: 77.9

Request: // repeat for COc1ccc(CNc2c3ccccc3nc3ccccc23)cc1OC and report
Response: 87.9

Request: Thanks! And COc1ccc(CNc2c3ccccc3nc3ccc(OC)cc23)cc1 ?
Response: 93.8

Request: And for COc1ccccc1CNc1c2ccccc2nc2ccccc12 ?
Response: 66.3

Request: Can you handle Fc1cccc(CNc2c3ccccc3nc3ccccc23)c1 next?
Response: 76

Request: Item: c1csc(-c2ccc(CNc3c4ccccc4nc4ccccc34)cc2)c1
Response: 72

Data origin, for the record: paper PMC9866191
